Value source: BindingDB's records for patent US10322118

Consider the following compounds and their measured IC50 readings.
Target: Putative hydrolase (Pseudomonas aeruginosa (strain UCBPP-PA14))
Sequence (A0A0H2ZD27 whole entry): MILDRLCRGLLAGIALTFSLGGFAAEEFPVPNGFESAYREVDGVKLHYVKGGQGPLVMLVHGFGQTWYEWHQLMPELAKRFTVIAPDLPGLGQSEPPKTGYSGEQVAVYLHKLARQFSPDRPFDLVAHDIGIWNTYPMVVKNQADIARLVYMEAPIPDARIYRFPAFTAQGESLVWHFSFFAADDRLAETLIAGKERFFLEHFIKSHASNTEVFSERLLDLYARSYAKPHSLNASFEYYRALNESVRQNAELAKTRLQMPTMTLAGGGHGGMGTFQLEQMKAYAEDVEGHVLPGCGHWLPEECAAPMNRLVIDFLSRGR
Assay: Biochemical Characterization of Cif Inhibitors

{"Entry Smiles": "Oc1ccc(Oc2ccccc2)cc1", "IC50": "> 100 µM"}
{"Entry Smiles": "Cc1cc(OCC(=O)O)cc(C)c1Cc1ccc(O)c(C(C)C)c1", "IC50": "> 100 µM"}
{"Entry Smiles": "CCC(=O)Oc1ccc(NC(=O)NC23CC4CC(CC(C4)C2)C3)cc1", "IC50": "> 100 µM"}
{"Entry Smiles": "CN(C(=O)NC(=O)c1c(F)cccc1F)c1ccc(Cl)cc1", "IC50": "> 100 µM"}
{"Entry Smiles": "O=C(O)c1ccc(Oc2ccccc2)cc1", "IC50": "> 100 µM"}
{"Entry Smiles": "Nc1ccc(Oc2ccccc2)cc1", "IC50": "> 100 µM"}
